Recorded OD450 at 1 nM values for a group of binders are listed next.
Biological target: T1, monkey GPC3-His protein (monkey)
T1 construct: Bought recombinant protein; also called monkey GPC3 protein
Assay: ELISA, monkey GPC3-His coated;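 further: Plate-coated antigen at 1 µg/mL, antibody binding 2 h at 37 °C, detected with HRP-labeled secondary antibody and TMB, absorbance at 450 nm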
Give just the number in OD450; leave the unit off.

// F1.136.7 (antibody, human IgG1, kappa, V domains shown, Human-murine chimeric antibody) VH: EVQLQQSGPVMVKPGPSVKISCQTSGFTFTDYYIHWVKQSHGKSLEWIGLVFPYDGGTNYNQKFKDKATLTLDTSSSTAYMELNSLTSEDSAVYYCARAGGFSYALNYWGQGTSVTVSS VL: DIQMTQSPSSLSASLGGKVTITCKASQDINNYIAWYQHKPGKGPRLLIHFTSTLQPGIPSRFSGSGSGRDYSFSISNLEPEDIATYYCLQYDNLLLTFGAGTKLELKR : OD450 at 1 nM value = 1.33

// F1.110.24 (antibody, human IgG1, kappa, V domains shown, Human-murine chimeric antibody) VH: EVKLVESGGGLVQPGGSLKLSCAASGFTFSDFYMYWVRQTPEKRLEWVAFISNGGGSTYYPDTVKGRFTISRDNVKNTLYLQMSRLKSEDTAMYYCARPDTSWFAYWGQGSLVTVSA VL: DIQMTQTTSSLSASLGDRVTISCRASQDIDNYLNWYQQKPDGTVKVLISYTSRLHSGVPSRFSGSGSGTDYSLTISNLEQEDIATYFCQQGNTLPWTFGGGTKLEIKR : OD450 at 1 nM value = 0.31

// F2.92.1 (antibody, human IgG1, kappa, V domains shown, Human-murine chimeric antibody) VH: QVQLQQSGAELVRPGASVKLSCKASGYIFSDYEIHWVKQTPVHGLECIGAVDPETGGTAYNQKFKGKATLTADKSSSTAYMELRSLTSEDSAVYFCTRFYSFAYWGQGTLVTVST VL: DVVMTQTPLSLPVSLGDQGSISCRSSQSLVHSNGNTYLQWYLQKPGQSPKLLIYKVSNRFSGVPDRFSGSGSGTDFTLKISRVEAEDLGVYFCCQSTHVLPTFGGGTKLEIKR : OD450 at 1 nM value = 2.3

// F4.13.7 (antibody, human IgG1, kappa, V domains shown, Human-murine chimeric antibody) VH: QVQLQQPGAELVKPGASVKLSCKASGYTFTNNWVHWVKQRPGQGLEWTGMIHPDSGSTIYNEKFQSKATLTVDKSSSTAYMQLSSLTSEDSAVYYCARGYYDSSSYYAMDYWGQGTSVTVSS VL: NIQMTQTTSSLSASLGDRVTISCSASQGIFNYLNWYQQKPDGTVKLLIYYTSSLHSGVPSRFSGSGSGTDYSLTISNLEPEDIATYYCQQYSKLPWTFGGGTKLEIKR : OD450 at 1 nM value = 2.34

// F3.81.19 (antibody, human IgG1, kappa, V domains shown, Human-murine chimeric antibody) VH: QVQLQQSGAELVRPGASVKLSCKASGYTFTDYEMHWVKQTPVHGLEWIGTIDPETGNTAYNQKFKGKATLTADKSSSTAYMELRSLTSEDSAVYYCTRPYSLTYWGQGTLVTVSA VL: DVLLTQTPLSLPVSLGDQASISCRSSQSFVHSNGDTYLQWYLQKPGQSPKLLIYKVSNRFSGVPDRFSGSGSGTDFTLKISRVEAEDLGVYYCFQGSHVPYTFGSGTKLEIKR : OD450 at 1 nM value = 1.96

The measurements presented in this section are drawn from patent US20260116991A1.
